Assay: Bioavailability of levosimendan following buccal and intravenous administration in dogs (plasma concentration)
Format: in vivo, beagle dogs
Conditions: beagle, dog, plasma, other: buccal spray, 0.02 mg/kg, dog plasma, buccal spray 0.02 mg/kg, 90 min, Dog 2
Protocol: Bioavailability of levosimendan was studied in dogs following buccal and intravenous administration of 0.02 mg/kg of the compound. As experimental animals, three beagle dogs were used. At the time of dosing all animals weighed approximately 10 kg. […] 5 ml of blood was collected from the cephalic vein at the following times after administration: 0, 10, 20, 40, min, 1, 1.5 and 2 hours. Plasma was separated and stored frozen in −20 ° C. until analyzed. […]

# compound, concentration at 90 min
rows = [
    ("CC1CC(=O)NN=C1c1ccc(NN=C(C#N)C#N)cc1 (single isomer, unassigned; (-))", "17 ng/mL"),
]

src = patent US6399610B1
